Origin of the recorded values: ChEMBL document CHEMBL4011659

test system: UniProt:P25090
experiment notes: Antagonist activity at FPR2 in human peripheral blood polymorphonuclear neutrophils assessed as inhibition of WKYMVM-peptide induced ROS production preincubated for 5 mins followed WKYMVM-peptide stimulation by isoluminol/HRP-based chemiluminescence assay
pIC50: −log10 of the molar value.
quantity kind: pIC50

1. CCN(CC)c1ccc2c(-c3ccccc3C(=O)N[C@@H](CCCCN)C(=O)N(CCC(=O)N[C@@H](CCCCN)C(=O)N(CCC(=O)N[C@@H](CCCCN)C(=O)N(CCC(=O)N[C@@H](CCCCN)C(=O)N(CCC(=O)N[C@@H](CCCCN)C(=O)N(CCC(=O)N[C@@H](CCCCN)C(=O)N(CCC(N)=O)[C@H](C)c3ccccc3)[C@H](C)c3ccccc3)[C@H](C)c3ccccc3)[C@H](C)c3ccccc3)[C@H](C)c3ccccc3)[C@H](C)c3ccccc3)c3ccc(=[N+](CC)CC)cc-3oc2c1; 7.36
2. CCN(CC)c1ccc2c(-c3ccccc3C(=O)N[C@@H](CCCCN)C(=O)N(CCC(=O)N[C@@H](CCCCN)C(=O)N(CCC(=O)N[C@@H](CCCCN)C(=O)N(CCC(=O)N[C@@H](CCCCN)C(=O)N(CCC(N)=O)Cc3ccccc3)Cc3ccccc3)Cc3ccccc3)Cc3ccccc3)c3ccc(=[N+](CC)CC)cc-3oc2c1; 7.89
3. CCN(CC)c1ccc2c(-c3ccccc3C(=O)N[C@@H](CCCCN)C(=O)N(CCC(=O)N[C@@H](CCCCN)C(=O)N(CCC(=O)N[C@@H](CCCCN)C(=O)N(CCC(=O)N[C@@H](CCCCN)C(=O)N(CCC(=O)N[C@@H](CCCCN)C(=O)N(CCC(=O)N[C@@H](CCCCN)C(=O)N(CCC(=O)N[C@@H](CCCCN)C(=O)N(CCC(N)=O)Cc3ccccc3)Cc3ccccc3)Cc3ccccc3)Cc3ccccc3)Cc3ccccc3)Cc3ccccc3)Cc3ccccc3)c3ccc(=[N+](CC)CC)cc-3oc2c1; 7.46
4. CCN(CC)c1ccc2c(-c3ccccc3C(=O)N[C@@H](CCCCN)C(=O)N(CCC(=O)N[C@@H](CCCCN)C(=O)N(CCC(=O)N[C@@H](CCCCN)C(=O)N(CCC(=O)N[C@@H](CCCCN)C(=O)N(CCC(=O)N[C@@H](CCCCN)C(=O)N(CCC(=O)N[C@@H](CCCCN)C(=O)N(CCC(N)=O)Cc3cc(F)c(F)c(F)c3)Cc3cc(F)c(F)c(F)c3)Cc3cc(F)c(F)c(F)c3)Cc3cc(F)c(F)c(F)c3)Cc3cc(F)c(F)c(F)c3)Cc3cc(F)c(F)c(F)c3)c3ccc(=[N+](CC)CC)cc-3oc2c1; 7.28
5. CCN(CC)c1ccc2c(-c3ccccc3C(=O)N[C@@H](CCCCN)C(=O)N(CCC(=O)N[C@@H](CCCCN)C(=O)N(CCC(=O)N[C@@H](CCCCN)C(=O)N(CCC(=O)N[C@@H](CCCCN)C(=O)N(CCC(=O)N[C@@H](CCCCN)C(=O)N(CCC(N)=O)Cc3ccccc3)Cc3ccccc3)Cc3ccccc3)Cc3ccccc3)Cc3ccccc3)c3ccc(=[N+](CC)CC)cc-3oc2c1; 7.74

====

pIC50 for assorted compounds
test system: N-formyl peptide receptor 2 (Homo sapiens)
Sequence (P25090 whole entry): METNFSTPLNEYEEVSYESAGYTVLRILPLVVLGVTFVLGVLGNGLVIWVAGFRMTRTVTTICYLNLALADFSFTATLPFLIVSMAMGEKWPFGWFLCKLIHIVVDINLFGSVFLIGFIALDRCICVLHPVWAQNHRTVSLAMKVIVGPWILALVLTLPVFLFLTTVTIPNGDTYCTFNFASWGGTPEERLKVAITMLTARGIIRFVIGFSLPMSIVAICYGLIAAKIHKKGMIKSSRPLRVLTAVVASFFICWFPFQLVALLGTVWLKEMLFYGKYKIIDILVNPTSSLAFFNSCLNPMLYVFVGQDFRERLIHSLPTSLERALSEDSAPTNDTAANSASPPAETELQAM
experiment notes: Antagonist activity at FPR2 in human peripheral blood polymorphonuclear neutrophils assessed as inhibition of WKYMVM-peptide induced ROS production preincubated for 5 mins followed WKYMVM-peptide stimulation by isoluminol/HRP-based chemiluminescence assay
pIC50: −log10 of the molar value.
quantity kind: pIC50

1. CCN(CC)c1ccc2c(-c3ccccc3C(=O)N[C@@H](CCCCN)C(=O)N(CCC(=O)N[C@@H](CCCCN)C(=O)N(CCC(N)=O)Cc3ccccc3)Cc3ccccc3)c3ccc(=[N+](CC)CC)cc-3oc2c1; 6.56
2. CCN(CC)c1ccc2c(-c3ccccc3C(=O)N[C@@H](CCCCN)C(=O)N(CCC(=O)N[C@@H](CCCCN)C(=O)N(CCC(=O)N[C@@H](CCCCN)C(=O)N(CCC(=O)N[C@@H](CCCCN)C(=O)N(CCC(=O)N[C@@H](CCCCN)C(=O)N(CCC(=O)N[C@@H](CCCCN)C(=O)N(CCC(N)=O)Cc3ccc(F)cc3)Cc3ccc(F)cc3)Cc3ccc(F)cc3)Cc3ccc(F)cc3)Cc3ccc(F)cc3)Cc3ccc(F)cc3)c3ccc(=[N+](CC)CC)cc-3oc2c1; 8.00
3. CCN(CC)c1ccc2c(-c3ccccc3C(=O)N[C@@H](CCCCN)C(=O)N(CCC(=O)N[C@@H](CCCCN)C(=O)N(CCC(=O)N[C@@H](CCCCN)C(=O)N(CCC(N)=O)Cc3ccccc3)Cc3ccccc3)Cc3ccccc3)c3ccc(=[N+](CC)CC)cc-3oc2c1; 7.55
4. CCN(CC)c1ccc2c(-c3ccccc3C(=O)N[C@@H](CCCCN)C(=O)N(CCC(=O)N[C@@H](CCCCN)C(=O)N(CCC(=O)N[C@@H](CCCCN)C(=O)N(CCC(=O)N[C@@H](CCCCN)C(=O)N(CCC(=O)N[C@@H](CCCCN)C(=O)N(CCC(=O)N[C@@H](CCCCN)C(=O)N(CCC(=O)N[C@@H](CCCCN)C(=O)N(CCC(=O)N[C@@H](CCCCN)C(=O)N(CCC(N)=O)Cc3ccccc3)Cc3ccccc3)Cc3ccccc3)Cc3ccccc3)Cc3ccccc3)Cc3ccccc3)Cc3ccccc3)Cc3ccccc3)c3ccc(=[N+](CC)CC)cc-3oc2c1; 7.39
5. CCCCCCCCCCCCCCCC(=O)N[C@H](CCC(N)=O)C(=O)N[C@H](CCCNC(=N)N)C(=O)N[C@H](CC(C)C)C(=O)N[C@H](Cc1ccccc1)C(=O)N[C@H](CCC(N)=O)C(=O)N[C@@H](C(=O)N[C@H](CCCCN)C(=O)NCC(=O)N[C@H](CCCNC(=N)N)C(=O)N[C@H](CCCNC(=N)N)C(N)=O)C(C)C; 5.95
6. CCN(CC)c1ccc2c(-c3ccccc3C(=O)N[C@@H](CCCCN)C(=O)N(CCC(=O)N[C@@H](CCCCN)C(=O)N(CCC(=O)N[C@@H](CCCCN)C(=O)N(CCC(=O)N[C@@H](CCCCN)C(=O)N(CCC(=O)N[C@@H](CCCCN)C(=O)N(CCC(=O)N[C@@H](CCCCN)C(=O)N(CCC(N)=O)Cc3ccccc3)Cc3ccccc3)Cc3ccccc3)Cc3ccccc3)Cc3ccccc3)Cc3ccccc3)c3ccc(=[N+](CC)CC)cc-3oc2c1; 7.82
7. CCN(CC)c1ccc2c(-c3ccccc3C(=O)N[C@@H](CCCCN)C(=O)N(CCC(=O)N[C@@H](CCCCN)C(=O)N(CCC(=O)N[C@@H](CCCCN)C(=O)N(CCC(=O)N[C@@H](CCCCN)C(=O)N(CCC(=O)N[C@@H](CCCCN)C(=O)N(CCC(=O)N[C@@H](CCCCN)C(=O)N(CCC(N)=O)Cc3ccc(C)cc3)Cc3ccc(C)cc3)Cc3ccc(C)cc3)Cc3ccc(C)cc3)Cc3ccc(C)cc3)Cc3ccc(C)cc3)c3ccc(=[N+](CC)CC)cc-3oc2c1; 7.62
8. CCN(CC)c1ccc2c(-c3ccccc3C(=O)N[C@@H](CCCCN)C(=O)N(CCC(=O)N[C@@H](CCCCN)C(=O)N(CCC(=O)N[C@@H](CCCCN)C(=O)N(CCC(=O)N[C@@H](CCCCN)C(=O)N(CCC(=O)N[C@@H](CCCCN)C(=O)N(CCC(=O)N[C@@H](CCCCN)C(=O)N(CCC(N)=O)Cc3ccc(C(F)(F)F)cc3)Cc3ccc(C(F)(F)F)cc3)Cc3ccc(C(F)(F)F)cc3)Cc3ccc(C(F)(F)F)cc3)Cc3ccc(C(F)(F)F)cc3)Cc3ccc(C(F)(F)F)cc3)c3ccc(=[N+](CC)CC)cc-3oc2c1; 7.03
9. CCN(CC)c1ccc2c(-c3ccccc3C(=O)N[C@@H](CCCCN)C(=O)N(CCC(=O)N[C@@H](CCCCN)C(=O)N(CCC(=O)N[C@@H](CCCCN)C(=O)N(CCC(=O)N[C@@H](CCCCN)C(=O)N(CCC(=O)N[C@@H](CCCCN)C(=O)N(CCC(=O)N[C@@H](CCCCN)C(=O)N(CCC(N)=O)[C@@H](C)c3ccccc3)[C@@H](C)c3ccccc3)[C@@H](C)c3ccccc3)[C@@H](C)c3ccccc3)[C@@H](C)c3ccccc3)[C@@H](C)c3ccccc3)c3ccc(=[N+](CC)CC)cc-3oc2c1; 7.47
10. CCCCCCCCCCCCCCCC(=O)N[C@@H](CCC(N)=O)C(=O)N[C@@H](CCCNC(=N)N)C(=O)N[C@@H](CC(C)C)C(=O)N[C@@H](Cc1ccccc1)C(=O)N[C@@H](CCC(N)=O)C(=O)NC(C(=O)N[C@@H](CCCCN)C(=O)NCC(=O)N[C@@H](CCCNC(=N)N)C(=O)N[C@@H](CCCNC(=N)N)C(N)=O)C(C)C (single isomer, unassigned); 6.05
11. CCN(CC)c1ccc2c(-c3ccccc3C(=O)N[C@@H](CCCCN)C(=O)N(CCC(N)=O)Cc3ccccc3)c3ccc(=[N+](CC)CC)cc-3oc2c1; 6.12
